- System Under Test: T1, EsCas13d, nuclease-dead (Eubacterium siraeum, UniProt B0MS50, R295A;H300A;R849A;H854A)
- T1 sequence: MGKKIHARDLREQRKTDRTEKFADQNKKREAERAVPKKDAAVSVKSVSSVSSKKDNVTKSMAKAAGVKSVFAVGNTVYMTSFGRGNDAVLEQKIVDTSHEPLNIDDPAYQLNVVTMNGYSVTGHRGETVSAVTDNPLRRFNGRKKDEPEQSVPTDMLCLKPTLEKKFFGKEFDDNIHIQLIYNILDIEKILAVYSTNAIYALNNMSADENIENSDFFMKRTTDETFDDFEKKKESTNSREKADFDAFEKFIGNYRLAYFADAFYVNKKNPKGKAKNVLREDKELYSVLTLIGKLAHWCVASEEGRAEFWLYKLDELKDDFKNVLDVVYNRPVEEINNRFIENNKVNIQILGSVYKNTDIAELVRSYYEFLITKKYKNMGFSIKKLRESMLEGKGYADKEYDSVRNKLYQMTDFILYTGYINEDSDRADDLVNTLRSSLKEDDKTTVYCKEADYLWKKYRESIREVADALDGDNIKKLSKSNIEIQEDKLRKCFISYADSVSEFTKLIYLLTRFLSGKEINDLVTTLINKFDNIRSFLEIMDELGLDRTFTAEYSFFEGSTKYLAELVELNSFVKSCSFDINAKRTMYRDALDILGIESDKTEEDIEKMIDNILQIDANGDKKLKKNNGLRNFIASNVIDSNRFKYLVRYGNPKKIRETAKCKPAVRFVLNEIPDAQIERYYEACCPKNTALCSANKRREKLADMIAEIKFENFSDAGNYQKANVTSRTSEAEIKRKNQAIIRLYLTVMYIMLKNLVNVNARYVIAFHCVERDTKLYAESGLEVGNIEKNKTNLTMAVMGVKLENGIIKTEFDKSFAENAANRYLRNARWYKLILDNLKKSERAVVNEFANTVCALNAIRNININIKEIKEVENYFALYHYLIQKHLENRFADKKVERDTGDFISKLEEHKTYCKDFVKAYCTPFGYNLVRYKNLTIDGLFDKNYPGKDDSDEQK
- Assay Name: crRNA (strand 1, pre-loaded); Mg2+; 40 mM Tris-HCl pH 7.5, 150 mM NaCl, 6 mM MgCl2, 1 mM DTT, 0.1% Tween-20, 0.2 mg/ml BSA; 25 C; 10 min per concentration, then washed
- Setup Conditions: tags: His6-TwinStrep-SUMO cleaved; N-terminal SNAP kept (SNAP-Surface 488); label: 3' end held by stalled T7 RNA polymerase
Record form. Attribute: Kd. Fill in for each entry.
Answers are plain numbers, in nM.

Example entries and their recorded answers appear below.
1. target 1 insA 3' of 8,insU 3' of 1 (mixed) RNA 1: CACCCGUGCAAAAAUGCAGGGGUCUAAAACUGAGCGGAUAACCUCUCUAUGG RNA 2: GGGAAUGGAUCCACAUCUACGAAUUCGUACCAUAGAGAGGUUAUACCGCUCAUCCGAGAUCGGAAGAGCACACGU | 12.9
2. target 2 MT 5'PFS UGA 3'PFS CAC (mixed) RNA 1: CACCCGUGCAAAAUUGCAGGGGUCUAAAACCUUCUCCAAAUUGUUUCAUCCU RNA 2: GGGAAUGGAUCCACAUCUACGAAUUCUGAAGGAUGAAACAAUUUGGAGAAGCACAGAUCGGAAGAGCACACGU | 15
3. target 2 MT 5'PFS GGU 3'PFS UCC (mixed) RNA 1: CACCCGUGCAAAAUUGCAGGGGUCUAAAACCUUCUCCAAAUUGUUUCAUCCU RNA 2: GGGAAUGGAUCCACAUCUACGAAUUCGGUAGGAUGAAACAAUUUGGAGAAGUCCAGAUCGGAAGAGCACACGU | 76

Hi there! I need Kd for each item below, if you can.
1. target 1 C7G,U11G (mixed) RNA 1: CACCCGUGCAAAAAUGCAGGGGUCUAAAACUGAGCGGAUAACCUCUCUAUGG RNA 2: GGGAAUGGAUCCACAUCUACGAAUUCGUACCAUAGAGAGGGUAUGCGCUCACCGAGAUCGGAAGAGCACACGU
2. target 2 MT 5'PFS GUA 3'PFS CUA (mixed) RNA 1: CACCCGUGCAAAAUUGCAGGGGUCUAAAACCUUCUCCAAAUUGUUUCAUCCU RNA 2: GGGAAUGGAUCCACAUCUACGAAUUCGUAAGGAUGAAACAAUUUGGAGAAGCUAAGAUCGGAAGAGCACACGU
3. target 1 A1G,A18G (mixed) RNA 1: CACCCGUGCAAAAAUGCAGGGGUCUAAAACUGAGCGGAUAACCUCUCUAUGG RNA 2: GGGAAUGGAUCCACAUCUACGAAUUCGUACCAUGGAGAGGUUAUCCGCUCGCCGAGAUCGGAAGAGCACACGU
4. target 1 insG 3' of 14,insA 3' of 8 (mixed) RNA 1: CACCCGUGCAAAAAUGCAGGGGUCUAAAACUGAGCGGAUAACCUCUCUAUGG RNA 2: GGGAAUGGAUCCACAUCUACGAAUUCGUACCAUAGAGAGGGUUAUACCGCUCACCGAGAUCGGAAGAGCACACGU

Response:
1. 24.7
2. 6.5
3. 74
4. 10.6

# per-item lookup of Kd; items listed below
1. target 2 MT 5'PFS UUA 3'PFS UAG (mixed) RNA 1: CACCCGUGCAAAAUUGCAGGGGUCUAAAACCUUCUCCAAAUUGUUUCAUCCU RNA 2: GGGAAUGGAUCCACAUCUACGAAUUCUUAAGGAUGAAACAAUUUGGAGAAGUAGAGAUCGGAAGAGCACACGU
2. target 1 insC 3' of 19,insA 3' of 17 (mixed) RNA 1: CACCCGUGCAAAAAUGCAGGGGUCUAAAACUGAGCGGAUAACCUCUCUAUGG RNA 2: GGGAAUGGAUCCACAUCUACGAAUUCGUACCAUCAGAAGAGGUUAUCCGCUCACCGAGAUCGGAAGAGCACACGU
3. target 1 A9G,U11C (mixed) RNA 1: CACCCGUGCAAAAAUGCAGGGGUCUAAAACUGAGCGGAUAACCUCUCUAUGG RNA 2: GGGAAUGGAUCCACAUCUACGAAUUCGUACCAUAGAGAGGCUGUCCGCUCACCGAGAUCGGAAGAGCACACGU
4. target 1 C2G,C4A (mixed) RNA 1: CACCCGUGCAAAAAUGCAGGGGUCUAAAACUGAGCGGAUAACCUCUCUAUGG RNA 2: GGGAAUGGAUCCACAUCUACGAAUUCGUACCAUAGAGAGGUUAUCCGAUGACCGAGAUCGGAAGAGCACACGU

Response:
1. 22
2. 49
3. 12.1
4. 6.94

Please state, for each entry, its recorded Kd.
1. target 2 MT 5'PFS GGA 3'PFS UGA (mixed) RNA 1: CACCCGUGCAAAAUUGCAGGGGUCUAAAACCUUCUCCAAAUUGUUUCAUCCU RNA 2: GGGAAUGGAUCCACAUCUACGAAUUCGGAAGGAUGAAACAAUUUGGAGAAGUGAAGAUCGGAAGAGCACACGU
2. target 1 MT 5'PFS UUG 3'PFS CCU (mixed) RNA 1: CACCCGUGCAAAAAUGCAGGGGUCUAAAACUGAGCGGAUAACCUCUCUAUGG RNA 2: GGGAAUGGAUCCACAUCUACGAAUUCUUGCCAUAGAGAGGUUAUCCGCUCACCUAGAUCGGAAGAGCACACGU
3. target 1 MT 5'PFS UCG 3'PFS UAA (mixed) RNA 1: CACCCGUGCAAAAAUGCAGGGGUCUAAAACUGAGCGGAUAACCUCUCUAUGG RNA 2: GGGAAUGGAUCCACAUCUACGAAUUCUCGCCAUAGAGAGGUUAUCCGCUCAUAAAGAUCGGAAGAGCACACGU

Response:
[15.6, 19.6, 86.5]
